All figures here come from patent US10947271B2.

tested on: Enterococcus faecium MDR Van A ATCC 51559; assay: MIC assay, E. faecium MDR Van A ATCC 51559; format: cell-based; settings: 24 h incubation, visual reading
Observed Property: Minimum Inhibitory Concentration (MIC) E. faecium ATCC51559

1) CCCCCCCCCN1CCC(C(=O)N[C@@H](CCCCN)C(=O)N[C@@H](CCCCNC(=O)[C@H]2NC(=O)[C@H]3NC(=O)[C@H](NC(=O)[C@@H]4NC(=O)[C@H](CC(N)=O)NC(=O)[C@H](NC(=O)[C@@H](CC(C)C)NC)[C@H](O)c5ccc(c(Cl)c5)Oc5cc4cc(c5O[C@@H]4O[C@H](CO)[C@@H](O)[C@H](O)[C@H]4O[C@H]4C[C@](C)(N)[C@H](O)[C@H](C)O4)Oc4ccc(cc4Cl)[C@H]3O)c3ccc(O)c(c3)-c3c(O)cc(O)cc32)C(N)=O)CC1 [MCC_004825]: xxx (xxx = 0.1-<1)
2) CNC(=O)[C@H](CCCCNC(=O)[C@H]1NC(=O)[C@H]2NC(=O)[C@H](NC(=O)[C@@H]3NC(=O)[C@H](CC(N)=O)NC(=O)[C@H](NC(=O)[C@@H](CC(C)C)NC)[C@H](O)c4ccc(c(Cl)c4)Oc4cc3cc(c4O[C@@H]3O[C@H](CO)[C@@H](O)[C@H](O)[C@H]3O[C@H]3C[C@](C)(N)[C@H](O)[C@H](C)O3)Oc3ccc(cc3Cl)[C@H]2O)c2ccc(O)c(c2)-c2c(O)cc(O)cc21)NC(=O)[C@H](CCCCN)NC(=O)[C@H](CCCCN)NC(=O)[C@H](CCCCNC(=O)c1ccc(Oc2ccccc2)cc1)NC(=O)c1ccc(Oc2ccccc2)cc1 [MCC_000310]: xxx (xxx = 0.1-<1)

====

tested on: Enterococcus faecium MDR Van A ATCC 51559; assay: MIC assay, E. faecium MDR Van A ATCC 51559; format: cell-based; conditions: 24 h incubation, visual reading
Observed Property: Minimum Inhibitory Concentration (MIC) E. faecium ATCC51559

1) CCCCCCCC(=O)N[C@@H](CCCCN)C(=O)N[C@@H](CCCCN)C(=O)NCCNC(=O)[C@H]1NC(=O)[C@H]2NC(=O)[C@H](NC(=O)[C@@H]3NC(=O)[C@H](CC(N)=O)NC(=O)[C@H](NC(=O)[C@@H](CC(C)C)NC)[C@H](O)c4ccc(c(Cl)c4)Oc4cc3cc(c4O[C@@H]3O[C@H](CO)[C@@H](O)[C@H](O)[C@H]3O[C@H]3C[C@](C)(N)[C@H](O)[C@H](C)O3)Oc3ccc(cc3Cl)[C@H]2O)c2ccc(O)c(c2)-c2c(O)cc(O)cc21: x (x = >4)
2) CCCCCCCC(=O)N[C@@H](CCCCN)C(=O)NCCCNC(=O)[C@H]1NC(=O)[C@H]2NC(=O)[C@H](NC(=O)[C@@H]3NC(=O)[C@H](CC(N)=O)NC(=O)[C@H](NC(=O)[C@@H](CC(C)C)NC)[C@H](O)c4ccc(c(Cl)c4)Oc4cc3cc(c4O[C@@H]3O[C@H](CO)[C@@H](O)[C@H](O)[C@H]3O[C@H]3C[C@](C)(N)[C@H](O)[C@H](C)O3)Oc3ccc(cc3Cl)[C@H]2O)c2ccc(O)c(c2)-c2c(O)cc(O)cc21: x (x = >4)

====

tested on: Enterococcus faecium MDR Van A ATCC 51559; assay: MIC assay, E. faecium MDR Van A ATCC 51559; format: cell-based; conditions: 24 h incubation, visual reading
Observed Property: Minimum Inhibitory Concentration (MIC) E. faecium ATCC51559

1. CNc1ccc(C(=O)N[C@@H](CCCCN)C(=O)N[C@@H](CCCCN)C(=O)N[C@@H](CCCCNC(=O)[C@H]2NC(=O)[C@H]3NC(=O)[C@H](NC(=O)[C@@H]4NC(=O)[C@H](CC(N)=O)NC(=O)[C@H](NC(=O)[C@@H](CC(C)C)NC)[C@H](O)c5ccc(c(Cl)c5)Oc5cc4cc(c5O[C@@H]4O[C@H](CO)[C@@H](O)[C@H](O)[C@H]4O[C@H]4C[C@](C)(N)[C@H](O)[C@H](C)O4)Oc4ccc(cc4Cl)[C@H]3O)c3ccc(O)c(c3)-c3c(O)cc(O)cc32)C(N)=O)cc1 [MCC_004822]: x (x = >4)
2. CCCCCCCCCC(=O)NC(CCCCN(C)C)C(=O)NCCCNC(=O)C1NC(=O)C2NC(=O)C(NC(=O)C3NC(=O)C(CC(N)=O)NC(=O)C(NC(=O)C(CC(C)C)NC)C(O)c4ccc(c(Cl)c4)Oc4cc3cc(c4OC3OC(CO)C(O)C(O)C3OC3CC(C)(N)C(O)C(C)O3)Oc3ccc(cc3Cl)C2O)c2ccc(O)c(c2)-c2c(O)cc(O)cc21 (stereo not drawn) [MCC_007339]: xx (xx = 1-4)
3. CCCCCCC[C@H](O)CC(=O)N[C@@H](CCCCN)C(=O)N[C@@H](CCCCN)C(=O)N[C@@H](CCCCNC(=O)[C@H]1NC(=O)[C@H]2NC(=O)[C@H](NC(=O)[C@@H]3NC(=O)[C@H](CC(N)=O)NC(=O)[C@H](NC(=O)[C@@H](CC(C)C)NC)[C@H](O)c4ccc(c(Cl)c4)Oc4cc3cc(c4O[C@@H]3O[C@H](CO)[C@@H](O)[C@H](O)[C@H]3O[C@H]3C[C@](C)(N)[C@H](O)[C@H](C)O3)Oc3ccc(cc3Cl)[C@H]2O)c2ccc(O)c(c2)-c2c(O)cc(O)cc21)C(=O)O [MCC_005506]: x (x = >4)
4. CCCCCCCCCC(=O)N[C@@H](CCCNC(=N)N)C(=O)N[C@@H](CCCNC(=N)N)C(=O)N[C@@H](CCCCNC(=O)[C@H]1NC(=O)[C@H]2NC(=O)[C@H](NC(=O)[C@@H]3NC(=O)[C@H](CC(N)=O)NC(=O)[C@H](NC(=O)[C@@H](CC(C)C)NC)[C@H](O)c4ccc(c(Cl)c4)Oc4cc3cc(c4O[C@@H]3O[C@H](CO)[C@@H](O)[C@H](O)[C@H]3O[C@H]3C[C@](C)(N)[C@H](O)[C@H](C)O3)Oc3ccc(cc3Cl)[C@H]2O)c2ccc(O)c(c2)-c2c(O)cc(O)cc21)C(=O)O [MCC_005507]: x (x = >4)
5. CNC(CC(C)C)C(=O)NC1C(=O)NC(CC(N)=O)C(=O)NC2C(=O)NC3C(=O)NC(C(=O)NC(C(=O)NCCCNC(=O)C(CCCCN)NC(=O)C(CCCCN)NC(=O)CCCOc4ccccc4)c4cc(O)cc(O)c4-c4cc3ccc4O)C(O)c3ccc(c(Cl)c3)Oc3cc2cc(c3OC2OC(CO)C(O)C(O)C2OC2CC(C)(N)C(O)C(C)O2)Oc2ccc(cc2Cl)C1O (stereo not drawn) [MCC_005365]: x (x = >4)

For every item in the list below, what is its measured Minimum Inhibitory Concentration (MIC) E. faecium ATCC51559?
1. CCCCCCCCCCC(=O)NC(CCCNC(=N)N)C(=O)NCCCNC(=O)C1NC(=O)C2NC(=O)C(NC(=O)C3NC(=O)C(CC(N)=O)NC(=O)C(NC(=O)C(CC(C)C)NC)C(O)c4ccc(c(Cl)c4)Oc4cc3cc(c4OC3OC(CO)C(O)C(O)C3OC3CC(C)(N)C(O)C(C)O3)Oc3ccc(cc3Cl)C2O)c2ccc(O)c(c2)-c2c(O)cc(O)cc21 (stereo not drawn) [MCC_007337]
2. CNC(CC(C)C)C(=O)NC1C(=O)NC(CC(N)=O)C(=O)NC2C(=O)NC3C(=O)NC(C(=O)NC(C(=O)NCCCCC(NC(=O)C(CCCCN)NC(=O)C(CCCCN)NC(=O)c4ccc(Oc5ccccc5)cc4)C(=O)O)c4cc(O)cc(O)c4-c4cc3ccc4O)C(O)c3ccc(c(Cl)c3)Oc3cc2cc(c3OC2OC(CO)C(O)C(O)C2OC2CC(C)(N)C(O)C(C)O2)Oc2ccc(cc2Cl)C1O (stereo not drawn) [MCC_000214, (4-PhO-PhCO)-KK-K(Vanc)-OH]

["xx (xx = 1-4)", "x (x = >4)"]
